B1: PhoQ; a variant is named by its letters at X, in order, P23837 (parent)
chain: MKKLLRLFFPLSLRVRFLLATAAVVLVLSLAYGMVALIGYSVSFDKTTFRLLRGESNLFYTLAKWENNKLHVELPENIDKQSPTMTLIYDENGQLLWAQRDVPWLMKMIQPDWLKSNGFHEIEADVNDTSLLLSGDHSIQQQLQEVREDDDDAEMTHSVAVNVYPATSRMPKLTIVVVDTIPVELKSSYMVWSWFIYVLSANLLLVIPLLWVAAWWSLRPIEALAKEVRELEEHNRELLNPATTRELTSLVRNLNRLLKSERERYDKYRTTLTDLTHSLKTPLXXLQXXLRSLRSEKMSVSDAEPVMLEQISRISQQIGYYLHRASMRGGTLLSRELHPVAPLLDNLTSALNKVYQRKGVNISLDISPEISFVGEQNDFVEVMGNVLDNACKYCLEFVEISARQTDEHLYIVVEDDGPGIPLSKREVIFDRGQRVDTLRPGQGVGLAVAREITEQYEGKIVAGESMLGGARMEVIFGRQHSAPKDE

- Variants of: B1
- method: enrichment ratio after two sorts for PhoP signalling (ratio (wild type AVST 3.29)); higher = more functional
- condition.label: with PhoP (E. coli)
Whole data set: some 140,000 sequences, median “enrichment ratio after two sorts for PhoP signalling” near 0, cut for the highest 2% near 11. The sample holds the highest values, similar sequences and a random draw of the others, so the mix is not that of the screen.
Recorded enrichment ratio for the following variants
Please give only the number in your answer, with no unit.

A selection of reference data follows.
   mutation_label  measured_result
0            SEFG             15.8
1            SEFE             4.76
2            TCTQ             21.4
3            SEVG             25.6
4            ADIL             8.79

Looking for the measured enrichment ratio of SEVA , can you help? 10.3

Looking for the measured enrichment ratio of SEVC , can you help? 9.44

Looking for the measured enrichment ratio of TKIL , can you help? 8.86

Looking for the measured enrichment ratio of SQCS , can you help? 14.7

Looking for the measured enrichment ratio of TCTW , can you help? 10.8

Looking for the measured enrichment ratio of TCAQ , can you help? 15.5

Looking for the measured enrichment ratio of SEFA , can you help? 1.84

Looking for the measured enrichment ratio of ANCL , can you help? 21.8

Looking for the measured enrichment ratio of NICL , can you help? 3.87

The origin of these recorded values is a collection of fitness landscapes (doi:10.1126/science.1257360).
